TARGET OF ASSAY: purified recombinant HIV-1 PR (Human immunodeficiency virus type 1 group M subtype B)
Construct: This 99 amino acid long homodimeric aspartic PR; made in house; host or cells: Escherichia coli BL21(DE3) RIL
PROTOCOL DETAILS: Inhibition of HIV-1 PR, spectrophotometric assay with chromogenic substrate (Morrison equation)
Type: biochemical
Method: Ki values were determined by spectrophotometric assay using purified recombinant HIV-1 PR and the chromogenic substrate KARVNleNphEaNle-NH2. Data were analyzed using the Morrison equation[35].
OBSERVABLE: Ki (nM)
// note: answer is a bare numeric in nM

Specify Ki for CCN(CC)c1ccc2c(COC(=O)N[C@H](C(=O)N[C@@H](Cc3ccccc3)C[C@H](O)[C@H](Cc3ccccc3)NC(=O)OCc3cncs3)C(C)C)cc(=O)oc2c1 [compound 1] , system purified recombinant HIV-1 PR (Human immunodeficiency virus type 1 group M subtype B). 0.17

---

TARGET OF ASSAY: purified recombinant HIV-1 PR (Human immunodeficiency virus type 1 group M subtype B, UniProt P04585)
Construct: This 99 amino acid long homodimeric aspartic PR; made in house; host or cells: Escherichia coli BL21(DE3) RIL
PROTOCOL DETAILS: Inhibition of HIV-1 PR, spectrophotometric assay with chromogenic substrate (Morrison equation)
Format: biochemical
TEST CONDITIONS: purified recombinant HIV-1 PR, chromogenic substrate KARVNleNphEaNle-NH2; read-out: Ki
OBSERVABLE: Ki (µM)
// note: answer is a bare numeric in µM

State, in one line, measured Ki of CC(C)[C@H](N)C(=O)N[C@@H](Cc1ccccc1)C[C@H](O)[C@H](Cc1ccccc1)NC(=O)OCc1cncs1 3.2

---

PROTOCOL DETAILS: Cytotoxicity, XTT, HEK293T cells
TEST CONDITIONS: human, HEK293T cells
OBSERVABLE: CC50 at 72 h

State, in one line, measured CC50 at 72 h of CCN(CC)c1ccc2c(COC(=O)N[C@H](C(=O)N[C@@H](Cc3ccccc3)C[C@H](O)[C@H](Cc3ccccc3)NC(=O)OCc3cncs3)C(C)C)cc(=O)oc2c1 [compound 1] > 50 µM

---

System: HIV-1 Gag polyprotein processing
PROTOCOL DETAILS: Inhibition of HIV-1 Gag polyprotein processing in particles from transfected HEK293T cells (immunoblot)
Type: cell-based
TEST CONDITIONS: Human immunodeficiency virus 1, HEK-293T; particles from HEK293T cells transfected with HIV-1 proviral plasmid; read-out: concentration giving ~50% reduction in Gag cleavage
pIC50: −log10 of the molar value.
OBSERVABLE: pIC50

Specify pIC50 for CCN(CC)c1ccc2c(COC(=O)N[C@H](C(=O)N[C@@H](Cc3ccccc3)C[C@H](O)[C@H](Cc3ccccc3)NC(=O)OCc3cncs3)C(C)C)cc(=O)oc2c1 [compound 1] , system HIV-1 Gag polyprotein processing. ~6.30

---

PROTOCOL DETAILS: Cytotoxicity, XTT, MT-4 cells
TEST CONDITIONS: human
OBSERVABLE: CC50 at 72 h (µM)
// note: answer is a bare numeric in µM

State, in one line, measured CC50 at 72 h of CCN(CC)c1ccc2c(COC(=O)N[C@H](C(=O)N[C@@H](Cc3ccccc3)C[C@H](O)[C@H](Cc3ccccc3)NC(=O)OCc3cncs3)C(C)C)cc(=O)oc2c1 [compound 1] 7.3

Data provenance is paper PMC4366505.
